Test system: SD rats
Test: Effect on rat hemodynamics (left ventricular pressure, heart rate)
Conditions: 0.5 mg/kg; anesthetized SD rats; 3 min after administration
Measured HR accompanies every entry in the list below.
Write the value as a bare number.

Some entries whose results are on file:
{"columns": ["molecule", "readout-number"],
 "data": [
  ["COC(=O)C1=C(C)NC(C)=C(C(=O)OC)C1c1ccccc1[N+](=O)[O-] [Nif, nifedipine]", 397],
  ["COc1ccccc1C[N+]1(CCCC(=O)c2ccc(F)cc2)CCC(O)(c2ccc(Cl)cc2)CC1 (stereo not drawn) [Compound X3]", 362],
  ["COc1ccc(C[N+]2(CCCC(=O)c3ccc(F)cc3)CCC(O)(c3ccc(Cl)cc3)CC2)cc1 (stereo not drawn) [Compound X1]", 356],
  ["COc1ccc(CCN(C)CCCC(C#N)(c2ccc(OC)c(OC)c2)C(C)C)cc1OC (stereo not drawn) [Ver, verapamil]", 302],
  ["COc1cccc(C[N+]2(CCCC(=O)c3ccc(F)cc3)CCC(O)(c3ccc(Cl)cc3)CC2)c1 (stereo not drawn) [Compound X2]", 362]
]}

Now turn to the next molecule.
Problem: Requested field: HR. Item: COc1ccc([C@@H]2Sc3ccccc3N(CCN(C)C)C(=O)[C@@H]2OC(C)=O)cc1 [Dil, diltiazem]
Result: 321
